Tested on: Staphylococcus aureus
test_description: Antibacterial activity against methicillin-resistant Staphylococcus aureus ATCC 33591 after 24 hrs by broth microdilution assay
Format: functional
stated_conditions: ATCC 33591, 24 h
test_readout: MIC (µg/mL)

• CCCCCCN(Cc1c2ccccc2c(Cl)c2ccccc12)C(=O)[C@@H](N)CCCCN.O=C(O)C(F)(F)F.O=C(O)C(F)(F)F = 2.8
• CCCCCCCCCCCCN(Cc1ccccc1)C(=O)[C@@H](N)CCCCN.O=C(O)C(F)(F)F.O=C(O)C(F)(F)F = 2.9
• CCCCN(Cc1c2ccccc2c(Cl)c2ccccc12)C(=O)[C@@H](N)CCCCN.O=C(O)C(F)(F)F.O=C(O)C(F)(F)F = 6.3
• CCCCCCCCN(Cc1c2ccccc2c(Cl)c2ccccc12)C(=O)[C@@H](N)CCCCN.O=C(O)C(F)(F)F.O=C(O)C(F)(F)F = 2.3

====

Listing: selectivity ratio of selected molecules
test_description: Therapeutic index, ratio of HC50 for human erythrocytes to MIC for drug-sensitive Pseudomonas aeruginosa ATCC 4676
stated_conditions: read-out: TI
test_readout: selectivity ratio

- CCCCCCN(Cc1c2ccccc2c(Cl)c2ccccc12)C(=O)[C@@H](N)CCCCN.O=C(O)C(F)(F)F.O=C(O)C(F)(F)F: 50
- CCCCCCN(Cc1cccc2ccccc12)C(=O)[C@@H](N)CCCCN.O=C(O)C(F)(F)F.O=C(O)C(F)(F)F: 50

====

System: Enterococcus faecium
test_description: Antibacterial activity against vancomycin-resistant Enterococcus faecium ATCC 51559 after 24 hrs by broth microdilution assay
Assay type: functional
stated_conditions: ATCC 51559, 24 h
Listed here are molecules together with their documented MIC.
test_readout: MIC (µg/mL)

- CCCCCCCCCCCCN(Cc1ccccc1)C(=O)[C@@H](N)CCCCN.O=C(O)C(F)(F)F.O=C(O)C(F)(F)F: 3.3
- CCCCCCN(Cc1cccc2ccccc12)C(=O)[C@@H](N)CCCCN.O=C(O)C(F)(F)F.O=C(O)C(F)(F)F: 54
- CCCCCCCCCCN(Cc1c2ccccc2c(Cl)c2ccccc12)C(=O)[C@@H](N)CCCCN.O=C(O)C(F)(F)F.O=C(O)C(F)(F)F: 5.6
- CCCCCCCCN(Cc1cccc2ccccc12)C(=O)[C@@H](N)CCCCN.O=C(O)C(F)(F)F.O=C(O)C(F)(F)F: 7

====

The reader will find reported HC50 at 1 h values listed item by item below.
test_description: Hemolytic activity in human erythrocytes after 1 hr by spectrophotometric analysis
Assay type: ADME, cell-based, Erythrocyte
test_readout: HC50 at 1 h (µg/mL)

• CCCCN(Cc1c2ccccc2c(Cl)c2ccccc12)C(=O)[C@@H](N)CCCCN.O=C(O)C(F)(F)F.O=C(O)C(F)(F)F = 91
• CCCCCCCCN(Cc1c2ccccc2c(Cl)c2ccccc12)C(=O)[C@@H](N)CCCCN.O=C(O)C(F)(F)F.O=C(O)C(F)(F)F = 64
• CCCCCCN(Cc1c2ccccc2c(Cl)c2ccccc12)C(=O)[C@@H](N)CCCCN.O=C(O)C(F)(F)F.O=C(O)C(F)(F)F = 82

====

test_description: Retention time of the compound by HPLC analysis
Type: physicochemical
Retention_time: recorded values
test_readout: Retention_time

* CCCCCCCCCCCCN(Cc1ccccc1)C(=O)[C@@H](N)CCCCN.O=C(O)C(F)(F)F.O=C(O)C(F)(F)F | 14.5 min
* CCCCCCCCN(Cc1ccccc1)C(=O)[C@@H](N)CCCCN.O=C(O)C(F)(F)F.O=C(O)C(F)(F)F | 12.1 min
* CCN(Cc1c2ccccc2c(Cl)c2ccccc12)C(=O)[C@@H](N)CCCCN.O=C(O)C(F)(F)F.O=C(O)C(F)(F)F | 11.8 min
* CCCCN(Cc1ccccc1)C(=O)[C@@H](N)CCCCN.O=C(O)C(F)(F)F.O=C(O)C(F)(F)F | 9.4 min

Data provenance is ChEMBL document CHEMBL3124866.
